These entries and their values trace back to ChEMBL document CHEMBL3885861.

We begin with a simple list: items and their reported K.
species: Rattus norvegicus; experiment: Open TG-GATES - Regimen: Single; type: toxicity, organism-based, Sprague-Dawley; design: regimen Single, gender Male, age 6 weeks; conditions: in vivo, po, 0 mg/kg, 9 h, tissue Plasma, route gavage, dose level Control
State just the number; it will be interpreted in meq/L.

Recorded results for 8 compounds are shown here.
[Q] Field request: K | item: CCOC(=O)C(C)(C)Oc1ccc(Cl)cc1 [CLOFIBRATE]
[A] 3.7

[Q] Field request: K | item: C[C@H]1O[C@H](O[C@H]2[C@H](O)[C@@H](O)[C@@H](O[C@H]3[C@H](O)[C@@H](O)C(O)O[C@@H]3CO)O[C@@H]2CO)[C@H](O)[C@@H](O)[C@@H]1N[C@H]1C=C(CO)[C@@H](O)[C@H](O)[C@H]1O (some centres undefined)
[A] 3.9

[Q] Field request: K | item: C[C@H]1C(=O)O[C@@H]2CCN3CC=C(COC(=O)[C@](C)(O)[C@]1(C)O)[C@H]23
[A] 4.1

[Q] Field request: K | item: Cc1cccc(C)c1OCC(C)N (centres undefined)
[A] 4.2

[Q] Field request: K | item: Cc1ccc2cc3c(ccc4ccccc43)c3c2c1CC3
[A] 4.4

[Q] Field request: K | item: O=[N+]([O-])c1ccc(O)c([N+](=O)[O-])c1
[A] 4.6

[Q] Field request: K | item: OCCN1CCN(CCCN2c3ccccc3Sc3ccc(C(F)(F)F)cc32)CC1
[A] 4.6

[Q] Field request: K | item: C=C(C)[C@H]1Cc2c(ccc3c2O[C@@H]2COc4cc(OC)c(OC)cc4[C@@H]2C3=O)O1
[A] 4.1

Consider the record given below.
[Q] Field request: K | item: Cn1cc[nH]c1=S
[A] 4.1

----------
species: Rattus norvegicus; test: Open TG-GATES - Regimen: Single; type: toxicity, organism-based, Sprague-Dawley; set-up: regimen Single, gender Male, age 6 weeks; details: in vivo, po, 0 mg/kg, 3 h, tissue Plasma, route gavage, dose level Control
parameter: BUN (mg/dL)
State just the number; it will be interpreted in mg/dL.

Recorded results for 2 molecules are shown here.
[Q] Field request: BUN | item: Cc1ccc2cc3c(ccc4ccccc43)c3c2c1CC3
[A] 10.5

[Q] Field request: BUN | item: Cc1cccc(C)c1OCC(C)N (stereo not given)
[A] 13.6

Continuing:
[Q] Field request: BUN | item: Cn1cc[nH]c1=S
[A] 14.4

[Q] Field request: BUN | item: CCOC(=O)C(C)(C)Oc1ccc(Cl)cc1 [CLOFIBRATE]
[A] 11.6

[Q] Field request: BUN | item: C=C(C)[C@H]1Cc2c(ccc3c2O[C@@H]2COc4cc(OC)c(OC)cc4[C@@H]2C3=O)O1
[A] 12.8

----------
species: Rattus norvegicus; experiment: Open TG-GATES - Regimen: Single; format: toxicity, organism-based, Sprague-Dawley; design: regimen Single, gender Male, age 6 weeks; details: in vivo, po, 0 mg/kg, 6 h, tissue Blood, route gavage, dose level Control
We begin with a simple list: items and their reported Hb.
State just the number; it will be interpreted in g/dL.

[Q] Field request: Hb | item: CCOC(=O)C(C)(C)Oc1ccc(Cl)cc1 [CLOFIBRATE]
[A] 13.7

[Q] Field request: Hb | item: C[C@H]1O[C@H](O[C@H]2[C@H](O)[C@@H](O)[C@@H](O[C@H]3[C@H](O)[C@@H](O)C(O)O[C@@H]3CO)O[C@@H]2CO)[C@H](O)[C@@H](O)[C@@H]1N[C@H]1C=C(CO)[C@@H](O)[C@H](O)[C@H]1O (some centres undefined) [ACARBOSE]
[A] 13.2

[Q] Field request: Hb | item: Cc1ccc2cc3c(ccc4ccccc43)c3c2c1CC3 [3-METHYLCHOLANTHRENE]
[A] 12.8

[Q] Field request: Hb | item: OCCN1CCN(CCCN2c3ccccc3Sc3ccc(C(F)(F)F)cc32)CC1 [FLUPHENAZINE]
[A] 13

[Q] Field request: Hb | item: C=C(C)[C@H]1Cc2c(ccc3c2O[C@@H]2COc4cc(OC)c(OC)cc4[C@@H]2C3=O)O1 [ROTENONE]
[A] 13.2

Continuing:
[Q] Field request: Hb | item: C[C@H]1C(=O)O[C@@H]2CCN3CC=C(COC(=O)[C@](C)(O)[C@]1(C)O)[C@H]23 [MONOCROTALINE]
[A] 13.4

[Q] Field request: Hb | item: O=[N+]([O-])c1ccc(O)c([N+](=O)[O-])c1 [2,4-DINITROPHENOL]
[A] 13.4

[Q] Field request: Hb | item: Cc1cccc(C)c1OCC(C)N (centres undefined) [MEXILETINE]
[A] 12.9

[Q] Field request: Hb | item: Cn1cc[nH]c1=S [METHIMAZOLE]
[A] 13.5

----------
We begin with a simple list: items and their reported KIDNEY_R.
species on record: Rattus norvegicus; assay: Open TG-GATES - Regimen: Daily Repeat; assay type: toxicity, organism-based, Sprague-Dawley; parameters: regimen Daily Repeat, gender Male, age 6 weeks; conditions: in vivo, po, 0 mg/kg, […], tissue Kidney, route gavage, dose level Control, time 14 day
State just the number; it will be interpreted in g.

[Q] Field request: KIDNEY_R | item: Cc1cccc(C)c1OCC(C)N (stereo unspecified)
[A] 1.3

Continuing:
[Q] Field request: KIDNEY_R | item: OCCN1CCN(CCCN2c3ccccc3Sc3ccc(C(F)(F)F)cc32)CC1
[A] 1.2

[Q] Field request: KIDNEY_R | item: CCOC(=O)C(C)(C)Oc1ccc(Cl)cc1 [CLOFIBRATE]
[A] 1.3

[Q] Field request: KIDNEY_R | item: C[C@H]1C(=O)O[C@@H]2CCN3CC=C(COC(=O)[C@](C)(O)[C@]1(C)O)[C@H]23
[A] 1.3

[Q] Field request: KIDNEY_R | item: C[C@H]1O[C@H](O[C@H]2[C@H](O)[C@@H](O)[C@@H](O[C@H]3[C@H](O)[C@@H](O)C(O)O[C@@H]3CO)O[C@@H]2CO)[C@H](O)[C@@H](O)[C@@H]1N[C@H]1C=C(CO)[C@@H](O)[C@H](O)[C@H]1O (stereo partly specified)
[A] 1.2

[Q] Field request: KIDNEY_R | item: O=C1CN(/N=C/c2ccc([N+](=O)[O-])o2)C(=O)N1
[A] 1.3

----------
We begin with a simple list: items and their reported GLC.
species on record: Rattus norvegicus; assay: Open TG-GATES - Regimen: Daily Repeat; type: toxicity, organism-based, Sprague-Dawley; parameters: regimen Daily Repeat, gender Male, age 6 weeks; conditions: in vivo, po, 0 mg/kg, […], tissue Plasma, route gavage, dose level Control, time 7 day
State just the number; it will be interpreted in mg/dL.

Recorded results for 8 molecules are shown here.
[Q] Field request: GLC | item: O=C1CN(/N=C/c2ccc([N+](=O)[O-])o2)C(=O)N1 [NITROFURANTOIN]
[A] 192.8

[Q] Field request: GLC | item: OCCN1CCN(CCCN2c3ccccc3Sc3ccc(C(F)(F)F)cc32)CC1 [FLUPHENAZINE]
[A] 196.2

[Q] Field request: GLC | item: C[C@H]1C(=O)O[C@@H]2CCN3CC=C(COC(=O)[C@](C)(O)[C@]1(C)O)[C@H]23 [MONOCROTALINE]
[A] 187

[Q] Field request: GLC | item: O=[N+]([O-])c1ccc(O)c([N+](=O)[O-])c1 [2,4-DINITROPHENOL]
[A] 182.2

[Q] Field request: GLC | item: C[C@H]1O[C@H](O[C@H]2[C@H](O)[C@@H](O)[C@@H](O[C@H]3[C@H](O)[C@@H](O)C(O)O[C@@H]3CO)O[C@@H]2CO)[C@H](O)[C@@H](O)[C@@H]1N[C@H]1C=C(CO)[C@@H](O)[C@H](O)[C@H]1O (some centres undefined) [ACARBOSE]
[A] 173.8

[Q] Field request: GLC | item: Cc1cccc(C)c1OCC(C)N (centres undefined) [MEXILETINE]
[A] 200.4

[Q] Field request: GLC | item: Cn1cc[nH]c1=S [METHIMAZOLE]
[A] 195.4

[Q] Field request: GLC | item: C=C(C)[C@H]1Cc2c(ccc3c2O[C@@H]2COc4cc(OC)c(OC)cc4[C@@H]2C3=O)O1 [ROTENONE]
[A] 195.4

Consider the record given below.
[Q] Field request: GLC | item: CCOC(=O)C(C)(C)Oc1ccc(Cl)cc1 [CLOFIBRATE]
[A] 213.2

----------
species: Rattus norvegicus; experiment: Open TG-GATES - Regimen: Daily Repeat; type: toxicity, organism-based, Sprague-Dawley; set-up: regimen Daily Repeat, gender Male, age 6 weeks; conditions: in vivo, po, 0 mg/kg, 72 h, tissue Plasma, route gavage, dose level Control, time 3 day
We begin with a simple list: items and their reported AST.
State just the number; it will be interpreted in IU/L.

Recorded results for 4 molecules are shown here.
[Q] Field request: AST | item: OCCN1CCN(CCCN2c3ccccc3Sc3ccc(C(F)(F)F)cc32)CC1
[A] 60.2

[Q] Field request: AST | item: Cc1cccc(C)c1OCC(C)N (stereo not given)
[A] 72.2

[Q] Field request: AST | item: O=[N+]([O-])c1ccc(O)c([N+](=O)[O-])c1
[A] 62.6

[Q] Field request: AST | item: C[C@H]1C(=O)O[C@@H]2CCN3CC=C(COC(=O)[C@](C)(O)[C@]1(C)O)[C@H]23
[A] 70

Continuing:
[Q] Field request: AST | item: CCOC(=O)C(C)(C)Oc1ccc(Cl)cc1 [CLOFIBRATE]
[A] 68
